Target: T1, hPRLR.mmh (soluble monomeric human PRLR) (human)
T1 construct: called soluble monomeric PRLR protein
T1 chain: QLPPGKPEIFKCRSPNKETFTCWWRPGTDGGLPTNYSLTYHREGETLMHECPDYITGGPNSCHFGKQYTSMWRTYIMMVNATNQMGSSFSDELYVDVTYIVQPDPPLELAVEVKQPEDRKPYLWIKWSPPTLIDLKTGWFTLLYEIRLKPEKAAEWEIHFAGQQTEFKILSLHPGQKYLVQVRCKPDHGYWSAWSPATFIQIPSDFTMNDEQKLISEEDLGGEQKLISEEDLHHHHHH
Assay: SPR Biacore, 25 C, mAb capture
parameter: Kd (nM)
Number in nM, nothing else.

binder H1H6793P (antibody, human IgG1, V domains shown, Human IgG1 Fc (H1H)) VH: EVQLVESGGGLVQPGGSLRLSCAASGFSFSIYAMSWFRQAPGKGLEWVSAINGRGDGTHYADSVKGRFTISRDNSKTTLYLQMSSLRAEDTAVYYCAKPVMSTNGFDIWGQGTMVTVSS VL: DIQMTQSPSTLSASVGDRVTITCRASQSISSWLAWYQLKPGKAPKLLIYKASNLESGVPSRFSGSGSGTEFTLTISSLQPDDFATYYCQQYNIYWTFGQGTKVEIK , Kd observed: 1.41

Record H1H6795P (antibody, human IgG1, V domains shown, Human IgG1 Fc (H1H)) VH: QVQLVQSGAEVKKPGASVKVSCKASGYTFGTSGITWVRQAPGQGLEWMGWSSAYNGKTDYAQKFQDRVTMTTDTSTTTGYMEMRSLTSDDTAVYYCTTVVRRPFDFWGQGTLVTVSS VL: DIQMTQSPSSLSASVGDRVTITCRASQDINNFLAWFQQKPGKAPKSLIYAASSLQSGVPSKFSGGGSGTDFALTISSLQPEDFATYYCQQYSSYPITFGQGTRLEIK . Reported Kd: 1.52

For reference, reported Kd for H1H6800P (antibody, human IgG1, V domains shown, Human IgG1 Fc (H1H)) VH: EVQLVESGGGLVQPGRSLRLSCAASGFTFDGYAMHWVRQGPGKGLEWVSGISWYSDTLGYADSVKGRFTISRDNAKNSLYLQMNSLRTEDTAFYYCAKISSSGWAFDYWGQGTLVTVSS VL: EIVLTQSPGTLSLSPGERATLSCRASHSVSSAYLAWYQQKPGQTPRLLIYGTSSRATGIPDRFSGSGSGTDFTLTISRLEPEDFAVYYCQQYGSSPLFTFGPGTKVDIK stands at 0.972

These data points were gathered from patent US20180185504A1.
